- Read-out: Monokine induced gamma interferon (MIG), CXCL9 (gene 4283)
- protocol-text: BSK_CASM3C_MIG: BioMAP Diversity Plus: CASM3C Assay for Monokine induced gamma interferon (MIG) Biomarker Activity (AID 2283048);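 also: MIG protein level measured by ELISA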
- study-conditions: primary human coronary artery smooth muscle cells; actives raise or lower the signal
The source made the active and inactive calls. The calls were made as follows: active = hit-call score of the fitted dose curve at least 0.9, where 1 is the maximum; inactive = score below 0.9.
measured-metric: AC50

C=CC(C)(CCC=C(C)C)OC(C)=O (stereo unspecified) :: inactive
Cc1ccc(N=Nc2c(O)ccc3ccccc23)c(C)c1 :: inactive
CCCCCCCCCCCCCCCCCC[N+](C)(C)Cc1ccccc1 :: 15.4 µM (active)
CCC(C)c1ccccc1O (stereo unspecified) :: inactive
OCCN1CN(CCO)CN(CCO)C1 :: inactive

Ask: Give AC50 for O=C1OC2(c3ccccc31)c1cc(I)c(O)c(I)c1Oc1c2cc(I)c(O)c1I
Result: inactive

Ask: Give AC50 for CCCCC(CC)C(=O)OCCOCCOCCOCCOC(=O)C(CC)CCCC (stereo unspecified)
Result: inactive

Ask: Give AC50 for Oc1ccc(Cc2ccccc2O)cc1
Result: inactive

Ask: Give AC50 for CC1=NN(c2ccccc2)C(=O)C1
Result: inactive

Ask: Give AC50 for COCN(COC)c1nc(N(COC)COC)nc(N(COC)COC)n1
Result: inactive

Ask: Give AC50 for COc1cc(OC)nc(NC(=O)NS(=O)(=O)Nc2ccccc2C(=O)N(C)C)n1
Result: inactive

Ask: Give AC50 for CN(Cc1cnc2nc(N)nc(N)c2n1)c1ccc(C(=O)N[C@@H](CCC(=O)O)C(=O)O)cc1
Result: inactive

====

- protocol-text: ATG_PBREM_CIS: Attagene CIS-FACTORIAL HepG2 Assay for human Phenobarbital-responsive Enhancer Module (PBREM) (AID 2282955)
- study-conditions: HepG2 PBREM cis-reporter, Attagene multiplexed transcription; actives raise or lower the signal
Calls of active or inactive are those of the source. The calls were made as follows: active = hit-call score of the fitted dose curve at least 0.9, where 1 is the maximum; inactive = score below 0.9.
Write down one outcome, taken from y = active, n = inactive

These solved cases illustrate the format of a correct answer.
CCOC(OCC)C(=O)c1ccccc1 :: n
O=CC(F)(F)C(F)(F)C(F)(F)F :: n
C=CC(=O)OCCN(CC)CC :: n
CCCCCCCCCCCC(=O)NCCCN(C)C :: n
C=CC(=O)OCC(CO)(COCC(COC(=O)C=C)(COC(=O)C=C)COC(=O)C=C)COC(=O)C=C :: n

Ask: Each compound tested received a call. Report the one for OCC1CCC(CO)CC1 (configuration not stated) .
Result: n

Ask: Each compound tested received a call. Report the one for CCCCCCCCC(C)=O .
Result: n

Ask: Each compound tested received a call. Report the one for CCC(C)c1ccccc1O (configuration not stated) .
Result: n

Ask: Each compound tested received a call. Report the one for Cc1ccc2ccc3ccc(C)cc3c2c1 .
Result: n

====

- protocol-text: TOX21_p53_BLA_p4_viability: Viability Assessment in the Tox21 HCT-116 p53 Agonism Beta-lactamase Assay, Phase 4 (AID 2283597);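 also: hits lower the luminescence signal meaning cytotoxicity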
- Text: TOX21_p53_BLA_p4 is a cell-based, single-readout assay that uses HCT116, a human intestinal cell line, […] in a 1536-well plate.TOX21_p53_BLA_p4_viability is an assay readout measuring cellular ATP content and detected with CellTiter-Glo Luciferase-coupled ATP quantitation.TOX21_p53_BLA_p4_viability used a type of viability reporter where loss-of-signal activity can be used to understand changes in the cell viability. […]
Inconclusive results are not listed. Activity calls are given as the source filed them. The calls were made as follows: active = hit-call score of the fitted dose curve at least 0.9, where 1 is the maximum; inconclusive = response in the unintended direction; inactive = score below 0.9.
Write down one outcome, taken from Y = active, N = inactive

These solved cases illustrate the format of a correct answer.
C[C@]12CC[C@@H]3c4ccc(O)cc4CC[C@H]3[C@@H]1C[C@@H](O)[C@@H]2O :: N
NNc1nc(-c2ccc([N+](=O)[O-])cc2)cs1 :: Y
Cc1ccc(S(=O)(=O)O)cc1 :: N

Ask: Each compound tested received a call. Report the one for Cc1ccc(C)c(S(=O)(=O)O)c1 .
Result: N

From: PubChem BioAssay (EPA / NIEHS)
